Attribution: PubChem BioAssay (NCI)

As shown below, each of these compounds has a reported TGI value.
test system: T-47D breast; assay: NCI tumour cell line growth inhibition, 48 h
measured_attribute: TGI

>>> reading("NC1=C(Cl)C(=O)c2ccc(S(N)(=O)=O)cc2C1=O")
"1.2 µM"
>>> reading("CCCc1cc2cc(-n3nc(C)c4c3CC(C)(C)CC4=O)cc(NC3CCC(O)CC3)c2c(=O)[nH]1 (stereo unspecified)")
"> 100 µM"
>>> reading("NC(CNO)C(=O)O (stereo unspecified)")
"> 100 µM"
>>> reading("O=C(O)c1ccc2c(c1Nc1ccccc1)C(=O)c1ccccc1C2=O")
"> 100 µM"
>>> reading("COC(=O)c1ccc(N=NN(C)COc2ccc(C#N)cc2)cc1")
"> 100 µM"
>>> reading("ClCc1ccc(-c2ccc(Cn3cnc4c(Cl)nc(Cl)nc43)cc2)cc1")
"4.64 µM"
